This collection of values is drawn from patent US12077531B2.

- TESTED_ON: human PHD2184-418 (Homo sapiens (Human))
- Sequence (Q9GZT9 184-418): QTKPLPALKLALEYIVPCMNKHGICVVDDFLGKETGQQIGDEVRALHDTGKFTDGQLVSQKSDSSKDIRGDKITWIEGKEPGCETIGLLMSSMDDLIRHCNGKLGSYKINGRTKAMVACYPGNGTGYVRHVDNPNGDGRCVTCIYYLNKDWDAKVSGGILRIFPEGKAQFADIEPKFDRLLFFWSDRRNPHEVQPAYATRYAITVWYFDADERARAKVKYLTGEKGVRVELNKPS
- TEST_SUMMARY: PHD2 inhibitory test (fluorescence polarization, binding between PHD2 and HIF-1α)
- COND: human PHD2184-418, FITC-labeled HIF-1α556-574, 2 μM 2-oxoglutarate, 37° C. 60 minutes
Structures can show the parent of a compound that is named as a salt.
PARAMETER_MEASURED: IC50 (nM)

Lookup: Specify reported IC50 for the molecule shown: Cn1c(C(=O)O)cnc1CN1CC[C@H](n2c(=O)n(-c3cccc(-c4ccccc4)c3)c3cccnc32)C1 [Example 54]
Found: 770

A: Cn1ccnc1CN1CC[C@H](n2c(=O)n(-c3ccc(-c4ccccc4)cc3)c3cccnc32)C1 [Example 2]
B: Cn1ccnc1CN1CC[C@H](n2c(=O)n(-c3ccc(-c4ccncc4)cc3)c3cccnc32)C1 [Example 36, hydrochloride]
Lookup: Please indicate which entry, A or B , has the lower recorded IC50 value. The response must carry the label of the picked entry.
Found: A
